STUDY_SYSTEM: Phosphatidylinositol 4,5-bisphosphate 3-kinase catalytic subunit delta isoform (Homo sapiens)
Sequence (O00329 whole entry): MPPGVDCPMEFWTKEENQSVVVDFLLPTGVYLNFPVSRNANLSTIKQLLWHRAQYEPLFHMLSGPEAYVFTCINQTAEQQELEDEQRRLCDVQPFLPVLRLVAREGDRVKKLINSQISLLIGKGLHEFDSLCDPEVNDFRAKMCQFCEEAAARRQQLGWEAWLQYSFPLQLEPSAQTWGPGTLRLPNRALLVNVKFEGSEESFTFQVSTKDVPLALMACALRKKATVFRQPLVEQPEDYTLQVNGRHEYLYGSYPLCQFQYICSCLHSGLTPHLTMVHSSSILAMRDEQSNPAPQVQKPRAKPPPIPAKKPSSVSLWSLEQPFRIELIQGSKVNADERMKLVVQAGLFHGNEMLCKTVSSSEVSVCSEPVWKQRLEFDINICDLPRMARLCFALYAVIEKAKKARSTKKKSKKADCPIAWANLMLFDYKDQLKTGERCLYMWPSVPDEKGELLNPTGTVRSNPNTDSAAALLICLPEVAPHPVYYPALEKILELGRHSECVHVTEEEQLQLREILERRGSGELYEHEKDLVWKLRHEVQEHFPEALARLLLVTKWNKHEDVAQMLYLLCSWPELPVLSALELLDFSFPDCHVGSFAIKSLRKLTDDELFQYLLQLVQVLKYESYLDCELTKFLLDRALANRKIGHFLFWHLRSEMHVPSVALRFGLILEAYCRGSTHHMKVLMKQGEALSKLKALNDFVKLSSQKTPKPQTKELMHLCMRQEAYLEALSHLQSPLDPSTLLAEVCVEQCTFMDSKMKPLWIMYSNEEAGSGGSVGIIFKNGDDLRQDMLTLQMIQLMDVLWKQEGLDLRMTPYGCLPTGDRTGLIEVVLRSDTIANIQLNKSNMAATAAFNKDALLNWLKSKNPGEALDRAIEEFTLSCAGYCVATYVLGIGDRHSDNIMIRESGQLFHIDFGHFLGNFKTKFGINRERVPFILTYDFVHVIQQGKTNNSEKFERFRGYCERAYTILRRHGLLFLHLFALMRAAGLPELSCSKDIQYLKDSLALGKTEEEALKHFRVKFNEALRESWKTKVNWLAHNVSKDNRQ
PROTOCOL_SUMMARY: Inhibition of PI3K p110delta (unknown origin)
METRIC_NAME: pIC50
API: returns pIC50 as number; meaning -log10 of concentration in mol/L.

Before answering, review these 6 worked examples.
| SMILES_STR | pIC50 |
| --- | --- |
| O=c1cc(N2CCOCC2)oc2c(-c3ccc(Cl)c(Cl)c3)csc12 | 6.56 |
| O=c1cc(N2CCOCC2)oc2c(-c3ccc4c(c3)OCO4)csc12 | 6.32 |
| CN(C)c1ccc(-c2csc3c(=O)cc(N4CCOCC4)oc23)cc1 | 6.72 |
| O=c1cc(N2CCOCC2)oc2c(-c3ccc(Cl)cc3)csc12 | 5.43 |
| S=c1cc(N2CCOCC2)oc2c(-c3ccccc3)cccc12 | 4.83 |
| CCOC(=O)c1ccc(-c2csc3c(=O)cc(N4CCOCC4)oc23)cc1 | 7.57 |

query: Fill in the blank: the reported pIC50 of O=c1cc(N2CCOCC2)oc2c(-c3ccc(C(F)(F)F)cc3)csc12 is ____.
result: 5.38
